Biological target: EGFR LTC (Homo sapiens, UniProt P00533, C797S/L858R/T790M)
Construct: expressed in transfected cells; host or cells: BaF3
Sequence (P00533 25-1210 T790M/C797S/L858R): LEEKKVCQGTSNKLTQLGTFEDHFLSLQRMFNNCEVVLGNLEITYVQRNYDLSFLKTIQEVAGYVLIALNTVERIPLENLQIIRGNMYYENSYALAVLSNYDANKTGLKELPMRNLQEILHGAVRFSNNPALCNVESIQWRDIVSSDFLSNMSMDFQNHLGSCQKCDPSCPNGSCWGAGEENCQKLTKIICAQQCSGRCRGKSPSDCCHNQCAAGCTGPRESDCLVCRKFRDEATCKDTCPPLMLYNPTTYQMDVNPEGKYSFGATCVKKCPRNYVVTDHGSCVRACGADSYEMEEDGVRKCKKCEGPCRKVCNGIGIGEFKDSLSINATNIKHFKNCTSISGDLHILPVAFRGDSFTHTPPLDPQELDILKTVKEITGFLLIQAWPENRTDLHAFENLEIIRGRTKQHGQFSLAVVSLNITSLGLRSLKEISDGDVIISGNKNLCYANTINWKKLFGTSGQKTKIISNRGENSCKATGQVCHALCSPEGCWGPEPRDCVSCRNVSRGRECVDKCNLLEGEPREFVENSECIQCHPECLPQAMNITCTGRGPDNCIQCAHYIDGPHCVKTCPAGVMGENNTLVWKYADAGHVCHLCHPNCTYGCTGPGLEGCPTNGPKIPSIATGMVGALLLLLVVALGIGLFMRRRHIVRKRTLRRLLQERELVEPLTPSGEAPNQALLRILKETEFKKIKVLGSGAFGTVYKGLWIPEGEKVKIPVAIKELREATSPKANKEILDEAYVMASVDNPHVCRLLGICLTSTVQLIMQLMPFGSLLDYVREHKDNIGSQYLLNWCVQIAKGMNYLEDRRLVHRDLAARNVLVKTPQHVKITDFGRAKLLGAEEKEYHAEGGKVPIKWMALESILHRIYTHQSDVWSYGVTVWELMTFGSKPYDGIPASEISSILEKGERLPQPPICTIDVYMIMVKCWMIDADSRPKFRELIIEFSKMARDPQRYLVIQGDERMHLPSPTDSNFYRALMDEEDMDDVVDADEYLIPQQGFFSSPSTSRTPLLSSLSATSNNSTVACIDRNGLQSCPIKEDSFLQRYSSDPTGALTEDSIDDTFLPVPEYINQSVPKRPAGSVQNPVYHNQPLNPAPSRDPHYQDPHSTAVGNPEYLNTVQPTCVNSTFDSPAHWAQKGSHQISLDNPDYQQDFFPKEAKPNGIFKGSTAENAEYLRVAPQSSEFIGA
Experiment: Cell Degradation 3: EGFR degradation in BaF3 cells (LTC), HTRF assay
Type: cell-based
Conditions: 16 h treatment, EGFR degradation by HTRF
Description: Cell Degradation 3 Cell Treatment BaF3 cells are treated with compounds diluted in 0.2% DMSO, dilution is done according to the following protocol: (1) make 500× stock solution in DMSO from 5 mM by 4-fold dilution, total 8 doses were included; (2) make 2× solution in cell culture medium by transferring 0.5 μl 500× stock solution into 125 μl medium; (3) 30 μl of 2× solution is added to cells and incubate for 16 h. […]
Classify: yes (1) when DC50 is strictly less than 60 nM; no (0) when DC50 is not.

Ask: Just wondering, is DC50 of CS(=O)(=O)N1CCc2cccc(Nc3nc(Nc4ccc(N5CCC(N6CCN(C(=O)C7CN(c8ccc9c(c8)C(=O)N(C8CCC(=O)NC8=O)C9=O)C7)CC6)CC5)c(F)c4)ncc3Cl)c21 (stereo not shown) below 60 nM?
Result: yes (1)

Ask: Just wondering, is DC50 of COc1cc(N2CCC(N3CCN(C[C@H]4C[C@H](c5ccc6c(c5)CN(C5CCC(=O)NC5=O)C6=O)C4)CC3)CC2)c(C)cc1Nc1ncc(Br)c(Nc2cccc3c2N(S(C)(=O)=O)CC3)n1 (stereo partly shown) below 60 nM?
Result: yes (1)

Ask: Just wondering, is DC50 of COc1cc(N2CCC(N3CCN(CC4CN(c5ccc6c(c5)C(=O)N(C5CCC(=O)NC5=O)C6)C4)CC3)CC2)c(C)cc1Nc1ncc(Br)c(Nc2cccc3c2N(S(C)(=O)=O)CC3)n1 (stereo not shown) below 60 nM?
Result: yes (1)

Ask: Just wondering, is DC50 of CS(=O)(=O)N1CCc2cccc(Nc3nc(Nc4ccc(N5CCC(N6CCN(CCc7ccc(C8CCC(=O)NC8=O)c(F)c7)CC6)CC5)c5c4OCC5)ncc3Cl)c21 (stereo not shown) below 60 nM?
Result: yes (1)
